Every entry's value here was drawn from patent US20120071516A1.

- system-name: Orai1/STIM1 (Homo sapiens)
- Construct: c-myc (C)
- Sequence (Q96D31 whole entry): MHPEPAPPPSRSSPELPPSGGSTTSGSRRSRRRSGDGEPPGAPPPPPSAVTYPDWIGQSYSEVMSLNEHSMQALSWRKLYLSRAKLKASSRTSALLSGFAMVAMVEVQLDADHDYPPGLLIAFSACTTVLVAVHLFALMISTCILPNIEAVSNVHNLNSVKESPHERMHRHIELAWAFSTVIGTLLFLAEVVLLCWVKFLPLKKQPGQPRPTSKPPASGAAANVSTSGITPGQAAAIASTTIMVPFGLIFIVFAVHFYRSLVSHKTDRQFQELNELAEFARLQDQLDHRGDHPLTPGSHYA
- assay: Fluorescence-based assay of store-operated calcium entry in Orai1/STIM1 stable cells
- test-parameters: HEK-293 cells stably expressing human STIM1 and Orai1; 50% inhibition of Peak-Basal fluo-4 signal; 30 minutes compound incubation; read-out: Orai1/STIM1 (IC50, μmol)
Give measured IC50 for each item. Keep answers brief.

Worked examples follow.
Cc1cc2c(cc1-c1cnc(NC(=O)c3c(F)cccc3F)[se]1)OC(F)(F)O2 | > 1000 nM
Cc1ccccc1-c1cnc(NC(=O)c2ccccc2F)[se]1 | ≤ 1000 nM
Cc1nc2cc(Cl)c(-c3ccc(C(=O)Nc4ccccc4F)[se]3)cc2o1 | ≤ 1000 nM
O=C(Nc1[se]cc(-c2ccc(Cl)cc2)c1C(=O)O)c1nc2ccccc2s1 | > 1000 nM

I would be grateful if you could provide IC50 for each of the following entries.
1. Cn1nc(C(F)(F)F)cc1-c1ccc(C(=O)Nc2ccccc2F)[se]1
2. Cn1nc(C(F)(F)F)cc1-c1ccc(C(=O)Nc2ccncc2F)[se]1

### Response
["≤ 1000 nM", "≤ 1000 nM"]

I would be grateful if you could provide IC50 for each of the following entries.
1. Cn1nc(C(F)(F)F)cc1-c1cnc(NC(=O)c2ccccc2Cl)[se]1
2. Cc1ccc(F)cc1-c1cnc(NC(=O)c2ccccc2F)[se]1
3. Cc1cc(OC(F)(F)F)ccc1-c1cnc(NC(=O)c2ccccc2F)[se]1
4. Cc1cc2scnc2cc1-c1ccc(C(=O)Nc2c(F)cccc2F)[se]1

### Response
1. ≤ 1000 nM
2. ≤ 1000 nM
3. ≤ 1000 nM
4. ≤ 1000 nM
